Listed compounds paired with reported melting point
Where a name gives a salt, the structure may show the parent alone.

compound	obs value
CN1CCN(c2cc(F)ccc2CC2OCCN(c3ccc(C(C)(C)C)cc3)C2=O)CC1.Cl (racemic) [Example 29 (±)]	155.9 to 159.9 °C
CC(C)c1ccc(N2CCOC(Cc3ccccc3N3CCN(C)CC3)C2=O)cc1.Cl (racemic)	185.7 to 188.1 °C
Cc1ccc(N2CCN(C)CC2)c(CC2OCCN(c3ccc(C(C)(C)C)cc3)C2=O)c1 (single isomer, unassigned; (-)) [Example 31 (−)]	86 to 88 °C
CN1CCN(c2ccc(C(F)(F)F)cc2CC2OCCN(c3ccc(C(C)(C)C)cc3)C2=O)CC1 (racemic) [Example 32 (±)]	145.1 to 146.2 °C
CN1CCN(c2cccc(Cl)c2C=C2OCCN(c3ccc(C(C)(C)C)cc3)C2=O)CC1.Cl	139 to 142 °C

Qu. Report melting point, nothing else, for this compound: CN1CCN(c2ccc(C(F)(F)F)cc2CC2OCCN(c3ccc(C(C)(C)C)cc3)C2=O)CC1.Cl (stereo not drawn) [Example 32 (+)]
Ans. 136 to 138 °C

Qu. Report melting point, nothing else, for this compound: CN1CCN(c2cc(Cl)ccc2C=C2OCCN(c3ccc(C(C)(C)C)cc3)C2=O)CC1 [Example 10]
Ans. 209 to 210.8 °C

Qu. Report melting point, nothing else, for this compound: CC(C)c1ccc(N2CCOC(=Cc3ccccc3N3CCN(C)CC3)C2=O)cc1 [Example 3]
Ans. 155 to 156 °C

Qu. Report melting point, nothing else, for this compound: CN1CCN(c2ccccc2CC2OCCN(c3ccc(C(C)(C)C)cc3)C2=O)CC1 (racemic) (as salt: tartrate) [Example 23]
Ans. 179 to 180 °C (dec.)

Qu. Report melting point, nothing else, for this compound: CN1CCN(c2cc(Cl)ccc2CC2OCCN(c3ccc(C(C)(C)C)cc3)C2=O)CC1 (racemic) [Example 27 (±)]
Ans. 161.9 to 163.5 °C

Qu. Report melting point, nothing else, for this compound: CN1CCN(c2ccc(C(F)(F)F)cc2CC2OCCN(c3ccc(C(C)(C)C)cc3)C2=O)CC1.Cl (stereo not drawn) [Example 32 (−)]
Ans. 128 to 130 °C

###

Listed molecules paired with reported melting point

molecule	melting point
CN1CCN(c2ccccc2CC2OCCN(c3ccc(C(C)(C)C)cc3)C2=O)CC1.Cl (single isomer, unassigned) [Example 24 (+)]	165.8 to 171.2 °C
CN1CCN(c2ccccc2CC2OCCN(c3ccc(-c4ccccc4)cc3)C2=O)CC1.Cl (racemic)	219.4 to 222.2 °C
CN1CCN(c2ccccc2CC2OCCN(Cc3ccc(C(C)(C)C)cc3)C2=O)CC1.Cl (racemic)	215 to 216 °C
CC1CN(c2ccccc2CC2OCCN(c3ccc(C(C)(C)C)cc3)C2=O)CC(C)N1C.Cl (racemic)	135 °C (dec.)
CN1CCN(c2cc(F)ccc2CC2OCCN(c3ccc(C(C)(C)C)cc3)C2=O)CC1.Cl (stereo not drawn) [Example 29 (−)]	156.2 to 158.1 °C

Qu. Report melting point, nothing else, for this molecule: CN1CCN(c2c(F)cccc2CC2OCCN(c3ccc(C(C)(C)C)cc3)C2=O)CC1.Cl (stereo not drawn) [Example 30 (−)]
Ans. 128.5 to 129.9 °C
